// values below are reported log10 MIC
System: Streptococcus pyogenes MH-771
assay overview: antimicrobial activity, broth dilution method
Type: cell-based
measurement conditions: Streptococcus pyogenes, MH771, Streptococcus pyogenes MH-771, drug-resistant clinical isolate; read-out: minimum inhibitory concentration (MIC)
The common logarithm of MIC in µg/mL is what is listed.

CCC1OC(=O)CC(OC(C)=O)C(C)C(OC2OC(C)C(OC3CC(C)(O)C(OC(=O)Cc4cccnc4)C(C)O3)C(N(C)C)C2O)C(CC=O)CC(C)C(=O)C=CC(C)=CC1COC1OC(C)C(O)C(OC)C1OC (stereo not drawn) [Compound 31, 3-acetyl-4"-(3-pyridyl)acetyltylosin] ... 0.80
CCC1OC(=O)CC(O)C(C)C(OC2OC(C)C(OC3CC(C)(O)C(OC(=O)C(C)Oc4ccccc4)C(C)O3)C(N(C)C)C2O)C(CC=O)CC(C)C(=O)C=CC(C)=CC1COC1OC(C)C(O)C(OC)C1OC (stereo not drawn) [Compound 46, 4"-α-phenoxypropionyltylosin] ... 1.10
CCC1OC(=O)CC(O)C(C)C(OC2OC(C)C(OC3CC(C)(O)C(OC(=O)CSc4ccncc4)C(C)O3)C(N(C)C)C2O)C(CC=O)CC(C)C(=O)C=CC(C)=CC1COC1OC(C)C(O)C(OC)C1OC (stereo not drawn) [Compound 41, 4"-(4-pyridyl)thioacetyltylosin] ... 1.10

## Input Assign log10 MIC to the following record: CCCCCCCC(=O)OC1C(C)OC(OC2C(C)OC(OC3C(CC=O)CC(C)C(=O)C=CC(C)=CC(COC4OC(C)C(O)C(OC)C4OC)C(CC)OC(=O)CC(O)C3C)C(O)C2N(C)C)CC1(C)O (stereo not drawn) [Compound 9, 4"-n-caprylyl(or n-octanoyl)tylosin]
## Output 1.40

## Input Answer with the recorded log10 MIC for the compound listed here: CCC(CC)C(=O)OC1C(C)OC(OC2C(C)OC(OC3C(CC=O)CC(C)C(=O)C=CC(C)=CC(COC4OC(C)C(O)C(OC)C4OC)C(CC)OC(=O)CC(OC(C)=O)C3C)C(O)C2N(C)C)CC1(C)O (stereo not drawn) [Compound 13, 3-acetyl-4"-α-ethyl-n-butyryltylosin]
## Output 1.10

## Input Output log10 MIC of CCC1OC(=O)CC(O)C(C)C(OC2OC(C)C(OC3CC(C)(O)C(OC(=O)Cc4cccc5ccccc45)C(C)O3)C(N(C)C)C2O)C(CC=O)CC(C)C(=O)C=CC(C)=CC1COC1OC(C)C(O)C(OC)C1OC (stereo not drawn) [Compound 22, 4"-α-naphthylacetyltylosin]
## Output 1.70

## Input Give the reported log10 MIC for this compound. CCCCCC(=O)OC1C(C)OC(OC2C(C)OC(OC3C(CC=O)CC(C)C(=O)C=CC(C)=CC(COC4OC(C)C(O)C(OC)C4OC)C(CC)OC(=O)CC(OC(C)=O)C3C)C(O)C2N(C)C)CC1(C)O (stereo not drawn) [Compound 8]
## Output 0.80

----------
System: Staphylococcus aureus FDA-209P
assay overview: antimicrobial activity, broth dilution method
Type: cell-based
measurement conditions: Staphylococcus aureus, FDA209P, Staphylococcus aureus FDA-209P; broth dilution; read-out: minimum inhibitory concentration (MIC)
Procedure: Antimicrobial activity of the new antibiotics according to the present invention was measured on various pathogenic microorganisms by the broth dilution mehtod. Tab. […] The new antibiotics show a similar antimicrobial spectrum to that of tylosin as shown in Tab. 4. All the compounds have an excellent antimicrobial activity mainly on gram-positive bacteria. […] Test microorganisms with an asterisk mark (*) in Tab. 4 are all drug-resistant strains that were clinically isolated. […]
Overview of recorded MIC for various molecules
Write down the value, and be sure its unit follows.

CCC1OC(=O)CC(O)C(C)C(OC2OC(C)C(OC3CC(C)(O)C(OC(=O)CSc4ccc(C)cc4)C(C)O3)C(N(C)C)C2O)C(CC=O)CC(C)C(=O)C=CC(C)=CC1COC1OC(C)C(O)C(OC)C1OC (stereo not shown) [Compound 35, 4"-(4-methylphenyl)thioacetyltylosin] ... 1.56 µg/mL

## Input Give me measured MIC, please, for this molecule: CCC1OC(=O)CC(OC(C)=O)C(C)C(OC2OC(C)C(OC3CC(C)(O)C(OC(=O)C(Cc4ccc(OC(C)=O)cc4)OC(C)=O)C(C)O3)C(N(C)C)C2O)C(CC=O)CC(C)C(=O)C=CC(C)=CC1COC1OC(C)C(O)C(OC)C1OC (stereo not shown) [Compound 28]
## Output 1.56 µg/mL

## Input Please give the documented MIC of CCC1OC(=O)CC(O)C(C)C(OC2OC(C)C(OC3CC(C)(O)C(OC(=O)CSc4ccncc4)C(C)O3)C(N(C)C)C2O)C(CC=O)CC(C)C(=O)C=CC(C)=CC1COC1OC(C)C(O)C(OC)C1OC (stereo not shown) [Compound 41, 4"-(4-pyridyl)thioacetyltylosin]
## Output 0.78 µg/mL

## Input Quickly give me recorded MIC for CCC1OC(=O)CC(OC(C)=O)C(C)C(OC2OC(C)C(OC3CC(C)(O)C(O)C(C)O3)C(N(C)C)C2OC(C)=O)C(CC=O)CC(C)C(=O)C=CC(C)=CC1COC1OC(C)C(OC(=O)C(Cl)(Cl)Cl)C(OC)C1OC (stereo not shown) [Compound 4, 3,2'-diacetyl-4'"-trichloroacetyltylosin]
## Output 1.56 µg/mL

----------
Listing of recorded MIC by entry.
System: Staphylococcus aureus FDA-209P
assay overview: antimicrobial activity, broth dilution method
Type: cell-based
measurement conditions: Staphylococcus aureus, FDA209P, Staphylococcus aureus FDA-209P; broth dilution; read-out: minimum inhibitory concentration (MIC)
Respond numerically; units are µg/mL and should not be typed.

Some compounds with known MIC results, for comparison:
CCC1OC(=O)CC(OC(C)=O)C(C)C(OC2OC(C)C(OC3CC(C)(O)C(OC(=O)C(O)Cc4ccccc4)C(C)O3)C(N(C)C)C2O)C(CC=O)CC(C)C(=O)C=CC(C)=CC1COC1OC(C)C(O)C(OC)C1OC (centres unmarked) [Compound 26] ... 0.78
CCC1OC(=O)CC(OC(C)=O)C(C)C(OC2OC(C)C(OC3CC(C)(O)C(O)C(C)O3)C(N(C)C)C2O)C(CC=O)CC(C)C(=O)C=CC(C)=CC1COC1OC(C)C(O)C(OC)C1OC (centres unmarked) [3-acetyltylosin, reference compound] ... 0.39
CCC(CC)C(=O)OC1C(C)OC(OC2C(C)OC(OC3C(CC=O)CC(C)C(=O)C=CC(C)=CC(COC4OC(C)C(O)C(OC)C4OC)C(CC)OC(=O)CC(OC(C)=O)C3C)C(O)C2N(C)C)CC1(C)O (stereo not drawn) [Compound 13, 3-acetyl-4"-α-ethyl-n-butyryltylosin] ... 0.39
CCC1OC(=O)CC(O)C(C)C(OC2OC(C)C(OC3CC(C)(O)C(OC(=O)C(C)Oc4ccccc4)C(C)O3)C(N(C)C)C2O)C(CC=O)CC(C)C(=O)C=CC(C)=CC1COC1OC(C)C(O)C(OC)C1OC (stereo not drawn) [Compound 46, 4"-α-phenoxypropionyltylosin] ... 0.78
CCC(=O)OC1C(OC2C(CC=O)CC(C)C(=O)C=CC(C)=CC(COC3OC(C)C(O)C(OC)C3OC)C(CC)OC(=O)CC(O)C2C)OC(C)C(OC2CC(C)(O)C(O)C(C)O2)C1N(C)C (centres unmarked) [2'-propionyltylosin, reference compound] ... 1.56
CCC1OC(=O)CC(OC(C)=O)C(C)C(OC2OC(C)C(OC3CC(C)(O)C(OC(=O)C(C)c4ccccc4)C(C)O3)C(N(C)C)C2O)C(CC=O)CC(C)C(=O)C=CC(C)=CC1COC1OC(C)C(O)C(OC)C1OC (stereo not drawn) [Compound 15, 3-acetyl-4"-α-phenylpropionyltylosin] ... 0.39
CCC1OC(=O)CC(OC(C)=O)C(C)C(OC2OC(C)C(OC3CC(C)(O)C(O)C(C)O3)C(N(C)C)C2OC(C)=O)C(CC=O)CC(C)C(=O)C=CC(C)=CC1COC1OC(C)C(O)C(OC)C1OC (centres unmarked) [3,2'-diacetyltylosin, reference compound] ... 1.56

Query compound follows.
## Input Supply measured MIC of CCC1OC(=O)CC(O)C(C)C(OC2OC(C)C(OC3CC(C)(O)C(O)C(C)O3)C(N(C)C)C2OC(C)=O)C(CC=O)CC(C)C(=O)C=CC(C)=CC1COC1OC(C)C(OC(=O)CCl)C(OC)C1OC (centres unmarked) [Compound 1, 2'-acetyl-4'"-monochloracetyltylosin] in your reply.
## Output 1.56

----------
Measured MIC values are reported for all entries that follow.
System: Mycoplasma gallisepticum A-72
assay overview: antibacterial activity against Mycoplasma
Assay type: cell-based
measurement conditions: Mycoplasmoides gallisepticum, A72; strain A-72, macrolide resistant; Eiken PPLO Medium
Source text: Furthermore the new antibiotics according to the present invention also show antimicrobial activity on Mycoplasma. In particular, it is noteworthy that they have much higher antimicrobial activity than tylosin on Mycoplasma that is resistant to macrolide antibiotics. Tab. *Macrolide resistant strain **Medium (Eiken PPLO Medium)
Give the value in µg/mL but do not write µg/mL after it.

CCC1OC(=O)CC(O)C(C)C(OC2OC(C)C(OC3CC(C)(O)C(OC(=O)CSc4ccncc4)C(C)O3)C(N(C)C)C2O)C(CC=O)CC(C)C(=O)C=CC(C)=CC1COC1OC(C)C(O)C(OC)C1OC (stereo not shown) ... 0.157
CC[C@H]1OC(=O)C[C@@H](O)[C@H](C)[C@@H](O[C@@H]2O[C@H](C)[C@@H](O[C@H]3C[C@@](C)(O)[C@@H](O)[C@H](C)O3)[C@H](N(C)C)[C@H]2O)[C@@H](CC=O)C[C@@H](C)C(=O)/C=C/C(C)=C/[C@@H]1CO[C@@H]1O[C@H](C)[C@@H](O)[C@@H](OC)[C@H]1OC ... 2.5
CCC1OC(=O)CC(O)C(C)C(OC2OC(C)C(OC3CC(C)(O)C(OC(=O)CSc4ccccc4)C(C)O3)C(N(C)C)C2O)C(CC=O)CC(C)C(=O)C=CC(C)=CC1COC1OC(C)C(O)C(OC)C1OC (stereo not shown) ... 0.078

## Input Let me know recorded MIC for CCC1OC(=O)CC(O)C(C)C(OC2OC(C)C(OC3CC(C)(O)C(OC(=O)CS(=O)(=O)c4ccccc4)C(C)O3)C(N(C)C)C2O)C(CC=O)CC(C)C(=O)C=CC(C)=CC1COC1OC(C)C(O)C(OC)C1OC (stereo not shown) , thanks.
## Output 0.039
